test system: Ebola virus; assay: microbe, parasite or virus in culture; format: cell-based, Ebolavirus (EBOV); conditions: Zaire ebolavirus, Vero, read-out: Max Effect
Structures can show the parent of a compound that is named as a salt.
observation_type: Emax (%)
Form entry: value (%) — number only.

// solved cases for Emax follow
* CN1CCCN(C(c2ccccc2)c2ccc(Cl)cc2)CC1 (centres unmarked) [Homochlorcyclizine dihydrochloride] | 50.8
* COc1ccc(CN2CCN(C(c3ccc(F)cc3)c3ccc(F)cc3)CC2)c(OC)c1OC [Lomerizine Dihydrochloride] | 66.5
* O=C1C(O)=C([C@H]2CC[C@H](c3ccc(Cl)cc3)CC2)C(=O)c2ccccc21 | 90
* CC(C)c1nc(CN(C)C(=O)N[C@H](C(=O)N[C@@H](Cc2ccccc2)C[C@H](O)[C@H](Cc2ccccc2)NC(=O)OCc2cncs2)C(C)C)cs1 | 48.5
* O=C(OC[C@H]1O[C@@H](OC(=O)c2cc(O)c(O)c(OC(=O)c3cc(O)c(O)c(O)c3)c2)[C@H](OC(=O)c2cc(O)c(O)c(OC(=O)c3cc(O)c(O)c(O)c3)c2)[C@@H](OC(=O)c2cc(O)c(O)c(OC(=O)c3cc(O)c(O)c(O)c3)c2)[C@@H]1OC(=O)c1cc(O)c(O)c(OC(=O)c2cc(O)c(O)c(O)c2)c1)c1cc(O)c(O)c(OC(=O)c2cc(O)c(O)c(O)c2)c1 | 54.3

[in] Output measured Emax for this item: Nc1ncn([C@@H]2O[C@H](CO)[C@@H](O)[C@H]2O)c(=O)n1
[out] 59.5

[in] Output measured Emax for this item: Nc1[nH]c(=O)ncc1F
[out] 79.3

[in] Output measured Emax for this item: NC(=O)C[C@H](N)C(=O)O
[out] 77.1
